Collected composite z-score values appear next to each entry.
assay-protocol: binders of probe aFSTL3 on microarray, primary screen, stem cell growth factor project, biochemical, small-molecule microarray, fluorescence 635/667 (AID 1064);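 also: measures binding of the biotinylated anti-FSTL3 antibody to printed compounds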
condition-label: higher = more signal
# output: bare number, no unit

Example results:
{"compound": "C[C@]1(C(=O)NCCN2CCOCC2)c2ccccc2C(=O)N(Cc2cc(F)cc(C(F)(F)F)c2)[C@H]1c1ccc(CO)cc1", "experimental-result": 0.0545}
{"compound": "O=C1OCCC=C[C@H]2OC34C=CCN(c5ccc(Cl)cc5)C(=O)[C@H]3N(CCCCCCO)C(=O)[C@@H]4C12 (stereo partly drawn)", "experimental-result": 0.43}

Could you tell me which composite z-score is on file for [N-]=[N+]=Nc1ccccc1[C@@H]1OC(c2ccc(OCCCO)cc2)=N[C@]1(Cc1ccccc1)C(=O)NCc1ccccc1 ? 0.97

I am curious: what composite z-score value has been reported for Cc1ccc(S[C@]2(C(=O)NC(C)C)CC(=O)N(Cc3ccccc3Cl)[C@@H]2c2ccc(CO)cc2)cc1 ? 0.827

====

tested-on: Focal adhesion kinase 1 (Homo sapiens)
assay-protocol: small-molecule microarray binders of FAK, primary screen, biochemical, 635/667 nm fluorescence, BSA, DTT (AID 1130);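 also: composite of spot emission at 667 nm and signal to noise over triplicate slides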
condition-label: PTK2 binding, 635 nm fluorescence, higher = more signal
readout-label: composite z-score

{"compound": "C=CCC(OC(C)=O)[C@@H]1[C@@H](N(Cc2cc3ccccc3o2)C(=O)c2ccc(-c3ccccc3)cc2)c2cc(OCCCO)ccc2N1C(=O)Cc1ccc(OC)cc1 (some centres undefined)", "composite z-score": -0.19}
{"compound": "Cc1cccc([C@H]2C[C@H]3C(Br)=C[C@@H]2C(=O)[C@]32CO2)c1", "composite z-score": -0.181}

Param readout= composite z-score; system= Focal adhesion kinase 1 (Homo sapiens); entry= COc1ccc([Si](C)(C)[C@H]2[C@H](CCO)O[C@@]3(C(=O)N(Cc4ccccc4)c4ccc(N5CCOC5=O)cc43)[C@@H]2C)cc1 ; returns value. 0.0096

Checklist item: composite z-score tested on Focal adhesion kinase 1 (Homo sapiens), entry Nc1cc(Br)ccc1C(=O)O , value? 0.5

Lab note: need composite z-score for Cc1ccc(C(C)CC(O)C2C=CC3C(=O)N(c4ccccc4)C(=O)C3N2Nc2ccc(C#N)cc2)o1 (centres undefined) on Focal adhesion kinase 1 (Homo sapiens), anyone have it? 0.175

Checklist item: composite z-score tested on Focal adhesion kinase 1 (Homo sapiens), entry CC(C)C[C@@H]1NC(=O)CNC(=O)[C@@]23C(=O)N[C@@H](Cc4ccccc4)C2[C@H](C)[C@@]2(C)O[C@H]2C3/C=C/C/C=C\CNC1=O (some centres undefined) , value? -0.183

Param readout = composite z-score; param system = Focal adhesion kinase 1 (Homo sapiens); param query = CCOC(=O)C1=C[C@@H](C(C)(C)C)N(S(=O)(=O)c2ccc(C)cc2)[C@H]1c1cccc(Cl)c1 ; response: value 2.77

State its composite z-score on Focal adhesion kinase 1 (Homo sapiens): C=CCC(OC(C)=O)[C@@H]1[C@@H](N(Cc2ccc(-c3ccccc3)cc2)C(=O)c2ccc(C)cc2)c2cc(OCCCO)ccc2N1C(=O)Cc1ccc2ccccc2c1 (some centres undefined) -0.0958

GET /values?readout=composite z-score&system=Focal adhesion kinase 1 (Homo sapiens)&item= CC(C)C[C@@H]1NC(=O)[C@H]2C[C@@H](C(=O)NCCCCCN)[C@@H](c3cccc(OCCO)c3)N2C1=O -0.0639

Field: composite z-score (Focal adhesion kinase 1 (Homo sapiens)). Entry: COc1ccc([Si](C)(C)[C@@H]2[C@@H](CC(=O)N3Cc4ccccc4C[C@H]3CO)O[C@]3(C(=O)N(c4ccccc4)c4ccccc43)[C@H]2C)cc1 0.983

Which measured composite z-score belongs to COc1ccc([Si](C)(C)[C@@H]2[C@@H](CCn3cc([C@H](O)c4ccccc4)nn3)O[C@]3(C(=O)N(Cc4cccc(N5C(=O)c6cccc7cccc5c67)c4)c4ccccc43)[C@H]2C)cc1 , tested on Focal adhesion kinase 1 (Homo sapiens)? -0.426

====

Reported values of z-score for individual entries
assay-protocol: A549 lung cancer cell viability effects, profiling panel, resazurin fluorescence, 24 h, PK04 Diversity Set (AID 1171); also: test concentration not given here
condition-label: higher = more signal, called active from +8 up or from −8 down
Note: the reply should be a number with no unit written.

Worked set:
{"molecule": "CC(C)N1CC=CC23O[C@@H]4/C=C\\CCCOC(=O)C4[C@H]2C(=O)N(CCCCCCO)[C@@H]3C1=O (stereo not given in full)", "experimental-result": 1.51}
{"molecule": "CCCCC=C[C@@H](NC(=O)c1ccccc1)c1ccccc1", "experimental-result": 0.962}
{"molecule": "CCOC(=O)C1=C[C@@H](C(C)(C)C)N(S(=O)(=O)c2ccc(C)cc2)[C@H]1c1ccccc1", "experimental-result": 1.62}

Please look up its z-score: COc1cc2c(cc1OC)CN(C(=O)[C@@H]1[C@H]3C(=O)O[C@H](c4ccccc4)[C@H](c4ccccc4)N3[C@H](c3ccc(O)cc3)[C@@]13C(=O)Nc1ccc(C#CCCO)cc13)CC2 0.156

If you can, please state the reported z-score value of NC(=O)N1C(=O)C2C(C1=O)C1C=C(CCCO)C2C(C2CC2)N1Cc1cccc(OC(F)(F)F)c1 (stereo not given) . -0.334

====

assay-protocol: small-molecule microarray binders of probe aDKK1, primary screen, biochemical, biotinylated probe, 635/667 nm fluorescence (AID 1099);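 also: score merges 667nm spot fluorescence with signal to noise across triplicate slides; reference of the scale not given here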
condition-label: higher = more signal
readout-label: composite z-score

Look over these answered cases.
{"compound": "CN1C(=O)C2C(C1=O)C1C=C(CCCO)C2C(C2CC2)N1Cc1cc2c(cc1Br)OCO2 (centres undefined)", "composite z-score": -0.272}
{"compound": "[N-]=[N+]=NCc1ccccc1[C@@H]1OC(c2ccc(OCCCO)cc2)=N[C@]1(Cc1ccccc1N=[N+]=[N-])C(=O)N1CCCCC1", "composite z-score": 0.561}
{"compound": "CC(=O)N1CC(C(O)C2C=CC3C(=O)NC(=O)C3N2Nc2ccc(Cl)cc2Cl)c2ccccc21 (centres undefined)", "composite z-score": 1.95}

What does the data say about its composite z-score? Entry: COC(=O)[C@@]1(Cc2ccccc2)[C@H]2c3cc(C(=O)N(C)C)n(CCn4cc([N+](=O)[O-])nc4C)c3C[C@H]2CN1C(=O)c1ccccc1 -0.262

====

assay-protocol: basal HepG2 mitochondrial membrane potential changes, profiling panel, cell-based, JC-1 fluorescence, 24 h, 100 nL compound (AID 1167); also: test concentration not given here
condition-label: higher = more signal
readout-label: z-score
Just the number, please.

The examples below pair each entry with its known result.
{"molecular-string": "[N-]=[N+]=NCc1ccccc1[C@H]1OC(c2ccc(OCCCO)cc2)=N[C@@]1(CCS(=O)(=O)c1ccccc1)C(=O)NCc1ccccc1", "z-score": -0.627}
{"molecular-string": "COCCCNC(=O)[C@@]1(Sc2ccc(C)cc2)CC(=O)N(Cc2ccccc2Cl)[C@@H]1c1ccc(CO)cc1I", "z-score": -0.51}
{"molecular-string": "C=C(COC)C(=O)CC[C@H](OC(=O)c1cccnc1)c1ccc(CO)o1", "z-score": -0.981}

Which value of z-score has been reported for C=C(COC)C(=O)CC[C@@H](OC(=O)c1cccnc1)c1ccccc1OCCO in the records? -0.758

====

assay-protocol: modulators of S6 phosphorylation in cells, primary screen, cell-based, A549, cytoblot, luminescence, serum-stimulated (AID 1158);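 also: serum-stimulated A549 lung adenocarcinoma cells; signal is phosphorylated S6 detected by cytoblot immunostaining with HRP secondary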
condition-label: A549 phospho-S6 cytoblot, 5 h, higher = more signal
Let's look at some compounds and their measured z-score.
Could you respond with only the numeric value?

{"compound": "COc1ccc([Si](C)(C)[C@H]2[C@H](CCO)O[C@@]3(C(=O)N(Cc4ccccc4)c4ccc(N5C(=O)c6ccccc6Oc6ccccc65)cc43)[C@@H]2C)cc1", "z-score": 0.314}
{"compound": "Cc1cccc([C@H]2C[C@H]3C(I)=C[C@@H]2C(=O)[C@]32CO2)c1", "z-score": 0.0314}
{"compound": "[N-]=[N+]=NCc1ccccc1[C@H]1OC(c2ccc(OCCCO)cc2)=N[C@@]1(Cc1ccccc1)C(=O)NCCN1CCOCC1", "z-score": -0.281}
{"compound": "O=C1c2ccccc2[C@](Cc2ccccc2I)(C(=O)NC2CC2)[C@H](c2ccc(CO)cc2)N1Cc1ccccc1C(F)(F)F", "z-score": 2.18}

Need z-score, item Nc1cc(Br)ccc1C(=O)O 0.265

# input compound: COc1cc(CO)cc(I)c1O[C@H]1C=C(C(=O)NCCO)C[C@@H](NCC2CCCCC2)[C@@H]1O ; wanted: its z-score 1.06

# input compound: Cc1ccccc1C(O)C1C=CC2C(=O)NC(=O)C2N1Nc1ccc(Cl)cc1Cl (configuration not stated) ; wanted: its z-score -0.649

====

# z-score per entry
assay-protocol: E. coli acrAB mutant growth effects, primary screen, E. coli filamentation inducers, strain DRC39, OD650, 48 h (AID 1179);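 also: screen aims at cell division blockers that make cells filament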
condition-label: E. coli DRC39 delta-acrAB growth, higher = more signal, called active from +8 up or from −8 down
Give only the figure.

{"molecule": "COC(=O)[C@@]1(Cc2ccc(F)cc2)[C@H]2c3cc(C(=O)N4CCCC4)n(CC4CC4)c3C[C@H]2CN1C(=O)c1ccccc1", "readout-label": "z-score", "experimental-result": -0.64}
{"molecule": "CC(CO)N1C(=O)[C@@H]2[C@H]3C(=O)OCC=C[C@H]3OC23C=CCN(c2ccc(Cl)cc2)C(=O)[C@@H]13 (stereo partly drawn)", "readout-label": "z-score", "experimental-result": 0.734}
{"molecule": "COC(=O)C(CC#Cc1ccc2c(c1)[C@]1(C(=O)N2)[C@H](c2ccc(OCCO)cc2)N2[C@H](c3ccccc3)[C@H](c3ccccc3)OC(=O)[C@H]2[C@@H]1C(=O)N1CCN(c2ncccn2)CC1)C(=O)OC", "readout-label": "z-score", "experimental-result": 0.152}

Given O=C1O[C@H](c2ccccc2)[C@H](c2ccccc2)N2[C@H]1[C@@H](C(=O)O)[C@]1(C(=O)Nc3ccc(C#CC4(O)CCCCCC4)cc31)[C@H]2c1ccc(O)cc1 , state its recorded z-score. -0.679

Looking for the measured z-score of Cc1ccc([C@H]2C(C(=O)O)=C[C@@H](C(C)(C)C)N2S(=O)(=O)c2ccc(C)cc2)cc1 , can you help? -0.387
